Target: acetylcholine receptor
Assay: SPR, receptor immobilized, peptide 10 uM
Each item that follows carries a reported log10(Binding affinity (RU)).
All values: base-10 log of Binding affinity (RU) in RU.

Some binders with recorded log10(Binding affinity (RU)):
binder: RNEFR [5mer-765]
log10(Binding affinity (RU)): 1.08
//
binder: KTEHR [5mer-1091]
log10(Binding affinity (RU)): 1.46

input: Find the recorded log10(Binding affinity (RU)) belonging to KMTEKK [6mer-2-870] and report it.
output: 1.32

input: Continue with KETKRR [6mer-2-802]
output: 1.38

input: Continue with RYTHK [5mer-1080]
output: 1.40

input: Continue with KKQILK [6mer-1-191]
output: 2.14

input: Continue with RCDWR [5mer-756]
output: 1.26
